The reported measurements were obtained from ChEMBL document CHEMBL1201862.

# GI50 measurements, system: HCT-15

Can you look up GI50 on HCT-15 for COC(=O)/C(=C\C(=O)c1ccc(Br)cc1)NN=C(c1ccccc1)c1ccccc1 ?
> 10 µM

----------
Listed here are compounds together with their documented GI50.
System: 786-0
Experiment: NCI tumour cell line growth inhibition, 48 h
Calls of active or inactive are those of the source. No stated cut-off is given here; in the data, active = GI50 up to about 1.1 µM and inactive = higher.

Consider the compound O=C(O)COc1ccc(O)c2c1C(=O)CCCC2=O and give its measured GI50.
> 100 µM (inactive)

So what's the measured GI50 for this one? Cc1ccc(-n2c(N)c(C#N)c3[nH]nc(N)c3c2=O)cc1
> 100 µM (inactive)

Returns the measured GI50 for the input compound. Input: CCN1CCN(c2ccc(Nc3ccnc4ccc5c(nnn5C)c34)cc2)CC1
3.86 µM (inactive)

What does the record list as GI50 for Cc1ccc(C(=O)/C(C#N)=C/Nc2c(C)n(C)n(-c3ccccc3)c2=O)cc1 ?
> 100 µM (inactive)

Quick check: GI50 of CCN(CC)CCCNc1nc(=O)[nH]c(C)c1C(=O)Nc1cccc2cc3ccccc3cc12 ?
> 100 µM (inactive)

Which GI50 value belongs to COC(=O)/C(=C\C(=O)c1ccc(Br)cc1)NN=C(c1ccccc1)c1ccccc1 ?
> 10 µM (inactive)
